What viability index was measured for each of the following?
Test system: Plasmodium falciparum NF54 stage V gametocytes;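 also: Saponin-lysis sexual stage assay in serum-free medium: MitoTracker Red CMXRos staining plus saponin, high-content imaging, particle count per well divided by plate mean of DMSO wells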
protocol-details: viability index relative to DMSO control (fraction); higher = less gametocyte killing
measurement-setup: 1.25 µM, incubation time: 72 h
The full ranking holds about 3,600 compounds; the median of “viability index relative to DMSO control” is about 0.81, and the lowest 2% start at about 0.13. This is one part of a sample in which the lowest values are shown more often than they occur.
Keep it simple and answer with nothing but the number.

Give recorded viability index with Plasmodium falciparum NF54 stage V gametocytes for the following molecule: "CC(=O)N(C1=C(N2CCOCC2)C(=O)c2ccccc2C1=O)c1cccc(Cl)c1"
0.0385

Next: "CCOc1ccc2nc(C)cc(Nc3ccc(C)c(Cl)c3)c2c1"
0.852

Would you mind doing "COc1cccc2c1OCC(CN1CCC(C(=O)Nc3ccc(-n4cccn4)cc3)CC1)=C2" as well?
1.03

Same read-out for "CCOC(=O)C1=C(C)N(CCNc2ncc(C(F)(F)F)cc2Cl)C(=O)CC1" ?
1.04

Queued: "Cc1cc(Nc2cccc(Cl)c2)nc2ccc(NC(=O)c3cccnc3)cc12"
0.912

Same question, "CC(=O)N(C1=C(N2CCN(C)CC2)C(=O)c2ccccc2C1=O)c1cc(C)cc(C)c1" this time
0.521

Also, "COc1cc(Nc2cncc(-c3ccc(C(N)=O)cc3)n2)cc(OC)c1OC" please.
0.0179

Try this molecule too: "CC(C=NNC(N)=S)=NNC(N)=S"
0.131

Same for "CCOC(=O)c1c(Cl)nnc(-c2ccccc2)c1-c1ccccc1"
0

And then "COc1cccc(CNC(=O)Cn2ncc3c(=O)oc4ccc(C)cc4c32)c1" , what is it?
0.843

Try this molecule too: "CCCCNC(=O)c1nn(-c2ccc(OC)cc2)c(=O)c2ccccc12"
0.946

Cool, now CCCCCOC(=O)C1=C(C)NC2=C(C(=O)CC(C)(C)C2)C1c1ccncc1 (stereo not drawn)
0.891

Same again, this time with "CCOC(=O)c1c(-c2ccccc2)oc2c1C(=O)c1ccccc1C2=O"
0.461

Next entry: "CC(=O)N(C1=C(N2CCCC2)C(=O)c2ccccc2C1=O)c1cccc(F)c1"
1

What about CN1CCC(CCNCc2ccc(OCC(O)CN(C)Cc3ccccc3)cc2)CC1 (stereo not drawn) ?
0.856

Here is the next molecule: "COc1ccc(-c2cnnc(NN=Cc3ccc([N+](=O)[O-])o3)n2)cc1"
0.0154

Repeat for the following molecule: "CC(=O)N(C1=C(N2CCOCC2)C(=O)c2ccccc2C1=O)c1cc(C)cc(C)c1"
0.0695

Then "CCN(CC)c1ccc(C=NNC(=O)c2ccc(Nc3nc(-c4ccccc4)cs3)cc2)c(O)c1" ?
0.675

Also "COC(=O)c1ccc(C=NNc2cc(C)nc3ccc(OC)cc23)cc1" ?
0.0573

Please do the same for "COC(=O)c1c(NC(=O)c2ccc(S(=O)(=O)N3CCOCC3)cc2)sc2c1CCN(C(C)=O)C2" as well.
0.76

And what about the molecule "CC(=O)N(C1=C(N2CCCCC2)C(=O)c2ccccc2C1=O)c1cccc(F)c1" ?
0.833

Input "COc1ccc(C(OCCS(=O)(=O)CCO)(c2ccccc2)c2ccc(OC)cc2)cc1"
0.0248

Now give it for "CC(=O)N(C1=C(N2CCOCC2)C(=O)c2ccccc2C1=O)c1ccc(Cl)c(Cl)c1" too.
0.351

Next molecule up: "COc1ccc(C=NNc2cc(C)nc3ccc(OC)cc23)c(OC)c1"
0.591

Do the same for O=C(NCc1ccccc1)C(c1ccc(F)cc1)N(Cc1ccco1)C(=O)c1cnccn1 (stereo not drawn) please
0.72

What do we get for Cc1cc(I)ccc1N1C(=O)C2C3c4ccccc4C(CO)(c4ccccc43)C2C1=O (stereo not drawn) ?
1.06

For CCC(C)NCC(O)(c1ccc(Cl)cc1)c1ccc(Cl)cc1 (stereo not drawn) then?
0.699

Try this molecule too: "CC(=O)N(C1=C(N2CCCCC2)C(=O)c2ccccc2C1=O)c1cccc(Cl)c1"
0.144

Do the same for "CC(=O)N(C1=C(N2CCOCC2)C(=O)c2ccccc2C1=O)c1ccc(C(C)C)c(C)c1" please
0.509

Next molecule up: "Cc1n(C)c2ccccc2[n+]1CC(=O)c1ccccc1"
0.785

Same for "CSc1ccc(C=CC(=O)NC(=O)c2ccccc2O)cc1"
0.661

Another molecule to check: "Cn1c(SCc2cccc([N+](=O)[O-])c2)nc2c(c1=O)SCC2"
0.818

// repeat for "O=[N+]([O-])c1ccc(N2CCN(C(=S)Nc3ccccc3)CC2)cc1" and report
0.967

Source of measurements: the supplement of paper PMC4723716
